experiment: folding stability dG unfold (combined trypsin and chymotrypsin); higher = more stable
Would you please tag the item Condition met when its folding stability dG unfold is 2 kcal/mol or above, and Condition not met when it is below?

Determine whether measured folding stability dG unfold meets or exceeds 2 kcal/mol for KTITIVIKNEDGELYVIKIKLKNGEEKEIVFKSLEELKNAIAKELGLSKEKIEIVEIKPLSPEELKELEKKS [r1_119_TrROS_Hall] Condition met

Please check the record SAGGSAGGSAMKIVKIEVVENEDGEKYVKIEIELENGEKIEITLPLEELENMSLEELLKLLKSAGGSAGGSA [r18_129_TrROS_Hall] and state if its folding stability dG unfold is at or above 2 kcal/mol. Condition met

Does SAKYKIIEAKPGKNVVTITVEYTLPNGEKLTKPIPINAINPVIVEVSEDSITIYDPNNGKLITFPAEKLSAG [r14_947_TrMRF] have a reported folding stability dG unfold of at least 2 kcal/mol? Condition met

Does the sequence SGMERTPLTPTETVTLTIPPGSLTITPTASPGPLTVTVTVPGSGTPTVVELPVEAPDLDAALAAVVAALQSA [r9_982_JUSTAS] have recorded folding stability dG unfold that is 2 kcal/mol or more? Condition not met

Please tell me: is the sequence SAGGLVREAAAEAGATGVDIREEVPDPNGGTVVTVLPRPGLSPEEAAAVRARIEAAIAEREPGATVVLESAG [r5_101_JUSTAS] at or over 2 kcal/mol in terms of folding stability dG unfold? Condition not met

Given the entry ADPDVKVEVEFEVLPDGRLRVTAVDPDTGVVVEVEAPVDGAGPVTVRVRVRVFDPETGEVSTFEAEFTLPLS [r1_45_TrMRF] , answer whether its folding stability dG unfold meets or surpasses 2 kcal/mol. Condition met

For this sequence, is measured folding stability dG unfold 2 kcal/mol or higher? SAPILPDAVVSEKPSVSQLPGNSTLVTTTYTYPGGPTITKTTTYTVDPSTGKWTTTSSTTLTPEAAAAASAG [r14_842_JUSTAS] Condition not met

hey, is folding stability dG unfold for this one >= 2 kcal/mol? SAGGKKKLTLEIKIKVPKEEEEKAKEKAKKLAEELAKKLKEAGYKVKVTVEIDEETGEITVKVEVELPSAGG [r13_755_TrROS_Hall] Condition met

Quick check: does SAGGSAKPVMVRIKFPNMPPEKLQDAFQEYGMQPQNMDPNKGEMIIMIPWEAAEEIQDKNGFKIEISAGGSA [r15_731_TrROS] have folding stability dG unfold greater than or equal to 2 kcal/mol? Condition not met

Given SAGGSAGGSIEELAKKTNIIEVKVTEFPNPKFKKAFIVYKNPKENKYKKGIYIFYDKKDGKLESAGGSAGGS [r12_133_TrMRF] , state whether its folding stability dG unfold is at least 2 kcal/mol. Condition not met

In plain terms: is recorded folding stability dG unfold at least 2 kcal/mol for SAGGSAGGSMKTITVPPEVLAALPLEEIVERNTSPDEEVEVEFVEEPGPVTVIIDTKKKPEHHSAGGSAGGS [r12_716_JUSTAS] ? Condition not met

Hi, just wondering whether SAGGSAGGSAAPTNPVEITLKRPDGTPVKATITFYPDGVKVTVEDGDTTTTSWLSPEEITLSAGGSAGGSAG [r3_373_JUSTAS] shows folding stability dG unfold of 2 kcal/mol or higher. Condition not met

Confirm if folding stability dG unfold reported for the sequence SAGGSAGGSAGGEDLKINIKISEITFSPDGWITMSMRGGNGRWFQHTIKVKIKLPPGDPSAGGSAGGSAGGS [r10_281_TrROS] is 2 kcal/mol or above. Condition met

Would you say SAGGSAGGSAGNYMVRLEIEMPENGRKVEWMVPEDDPEEILEKFPWLKEHGMEVKIEVFPSAGGSAGGSAGG [r17_176_TrROS] shows folding stability dG unfold at minimum 2 kcal/mol? Condition not met
